Test system: arterial ring angiogenesis in rats
Measurement notes: Inhibitory actions on arterial ring angiogenesis in rats
Type: cell-based
Settings: Rattus norvegicus; 0.2 μg/ml; area covered by micrangiums vs control well; read-out: Inhibitory rate (%)
Measured endpoint: inhibition at 0.2 µg/mL

CCN(CC)CCC(=O)Nc1c(C)[nH]c(/C=C2\C(=O)Nc3ccc(Cl)cc32)c1C | 94%
Cc1[nH]c(/C=C2\C(=O)Nc3ccc(F)cc32)c(C)c1NC(=O)/C=C/CN(C)C | 98%
CCN(CC)CC(=O)Nc1c(C)[nH]c(/C=C2\C(=O)Nc3ccc(Cl)cc32)c1C | 95%
C=CC(=O)Nc1c(C)[nH]c(/C=C2\C(=O)Nc3ccc(F)cc32)c1C | 95%
CCN(CC)CC(=O)Nc1c(C)[nH]c(/C=C2\C(=O)Nc3ccc([N+](=O)[O-])cc32)c1C | 93%
CCN(CC)CC(=O)Nc1c(C)[nH]c(/C=C2\C(=O)Nc3cc(OC)ccc32)c1C | 90%
CCN(CC)CC(=O)Nc1c(C)[nH]c(/C=C2\C(=O)Nc3ccc(NC(C)=O)cc32)c1C | 90%
Cc1[nH]c(/C=C2\C(=O)Nc3ccc(F)cc32)c(C)c1NC(=O)CN(C)C | 90%

Values were extracted from patent US8637681B2.
